- Tested on: HCT116
- setup-conditions: 72 h; ICRF193 200 nM
Structures can show the parent of a compound that is named as a salt.
Reported IC50 cell viability values follow for various compounds

In the examples that follow, each entry is paired with its recorded IC50 cell viability.
CC(=O)Oc1ccccc1C(=O)Nc1ncc([N+](=O)[O-])s1 [Nitazoxanide] :: 18.3 µM
Oc1c(Cl)cc(Cl)c(Cl)c1Cc1c(O)c(Cl)cc(Cl)c1Cl :: 6.51 µM
Cc1cc2nc3c(=O)[nH]c(=O)nc-3n(C[C@H](O)[C@H](O)[C@H](O)COP(=O)(O)OP(=O)(O)OC[C@H]3O[C@@H](n4cnc5c(N)ncnc54)[C@H](O)[C@@H]3O)c2cc1C [Flavin adenine dinucleotide disodium salt hydrate] :: > 45.8 µM
OC[C@@H](O)[C@H](O)[C@H](O)[C@@H](O)CO :: > 45.8 µM

Give IC50 cell viability; test system HCT116; compound C/C=C/c1ccc(OC)cc1 > 45.8 µM

Give IC50 cell viability; test system HCT116; compound COC(=O)CCCCC(CCSS/C(CCO)=C(/C)N(C=O)Cc1cnc(C)nc1N)SC(C)=O (configuration not stated) > 45.8 µM

Give IC50 cell viability; test system HCT116; compound O=C([O-])CC(O)C(=O)[O-].[Na+].[Na+] (configuration not stated) [Disodium 2-hydroxybutanedioate] > 45.8 µM

====

- Tested on: HCT116
- setup-conditions: 72 h; ICRF193 200 nM
readout: IC50 cell viability

In the examples that follow, each entry is paired with its recorded IC50 cell viability.
CC(CN(C)C)CN1c2ccccc2Sc2ccc(C(F)(F)F)cc21 (stereo unspecified) [Trifluomeprazine 2-butenedioate] :: 18.3 µM
Cc1c(F)cc2c(=O)c(C(=O)O)cn3c2c1CCC3C (stereo unspecified) :: > 45.8 µM
C#C[C@]1(O)CC[C@H]2[C@@H]3[C@H](C)CC4=C(CCC(=O)C4)[C@H]3CC[C@@]21C :: > 45.8 µM
CC(=O)O[C@@]12CO[C@@H]1C[C@H](O)[C@@]1(C)C(=O)[C@H](O)C3=C(C)[C@@H](OC(=O)[C@H](O)[C@@H](NC(=O)OC(C)(C)C)c4ccccc4)C[C@@](O)([C@@H](OC(=O)c4ccccc4)[C@H]21)C3(C)C :: 0.0146 µM
N[C@H](C(=O)O)[C@H](O)c1ccc(O)c(O)c1 :: > 45.8 µM

Please examine the following record next.
Please list IC50 cell viability recorded for the molecule CCN1CCN(C(=O)N[C@@H](C(=O)N[C@]2(OC)C(=O)N3C(C(=O)O)=C(CSc4nnnn4C)CS[C@@H]32)[C@H](C)O)C(=O)C1=O > 45.8 µM

====

Reported IC50 cell viability values follow for various compounds
- System: HCT116
- setup-conditions: 72 h; ICRF193 200 nM

In the examples that follow, each entry is paired with its recorded IC50 cell viability.
CO[C@H]1C[C@H](O[C@H]2[C@H](C)[C@@H](O[C@@H]3O[C@H](C)C[C@H](N(C)C)[C@H]3OC(C)=O)[C@@H](C)C[C@@]3(CO3)C(=O)[C@H](C)[C@@H](OC(C)=O)[C@@H](C)[C@@H](C)OC(=O)[C@@H]2C)O[C@@H](C)[C@@H]1OC(C)=O [Troleandomycin] :: > 45.8 µM
COP(=O)(OC)OC=C(Cl)Cl [Dichlorvos] :: > 45.8 µM

Give IC50 cell viability; test system HCT116; compound C[C@H](O)C(=O)Nc1c(I)c(C(=O)NC(CO)CO)c(I)c(C(=O)NC(CO)CO)c1I [Iopamidol] > 45.8 µM
